Values compiled from patent US11130781B2.

Test system: Pseudomonas aeruginosa
Format: cell-based
Details: 18 h
Where no end group is shown, it is not given here.
readout.type: Bioscreen MIC values Pseudomonas aeruginosa (µM)

[[record]]
substance = "RRWVQRWIRRWRPKVAAARRWV-NH2 [SEQ ID NO: 10]"
inequality_symbol = "="
numeric_readout = 1.25

[[record]]
substance = "RRWVQRWIRRWRPKVAAARRWVQRWIRRWRPKV-NH2 [SEQ ID NO: 12]"
inequality_symbol = "="
numeric_readout = 1.25

[[record]]
substance = "APKAMRRWVQRWIRRWRPKVLLHYPSQKF-NH2 [SEQ ID NO: 23]"
inequality_symbol = "="
numeric_readout = 2.5

[[record]]
substance = "APKAMRRWVQRWIRRWRPRV-NH2 [SEQ ID NO: 17]"
inequality_symbol = "="
numeric_readout = 5

[[record]]
substance = "RRWVQRWIRRWRPKW-NH2 [SEQ ID NO: 9, RRWVQRWIRRWRPKW]"
inequality_symbol = "="
numeric_readout = 5

[[record]]
substance = "APKAMWVQRWIRRWRPLQKKGI-NH2 [SEQ ID NO: 27]"
inequality_symbol = ">"
numeric_readout = 10

[[record]]
substance = "APKAMRRWVQRWIRRWRPRLQKKGI-NH2 [SEQ ID NO: 19]"
inequality_symbol = "="
numeric_readout = 5

[[record]]
substance = "RRWVQRWIRRWRPK-NH2 [SEQ ID NO: 8, RRWVQRWIRRWRPK]"
inequality_symbol = "="
numeric_readout = 10

[[record]]
substance = "RRWVQRWIRRWRPKVLQKKGI-NH2 [SEQ ID NO: 14]"
inequality_symbol = "="
numeric_readout = 10

[[record]]
substance = "RRWVQRWIRRWRKVAAARRWVQRWIRRWRPKV-NH2 [SEQ ID NO: 13]"
inequality_symbol = "="
numeric_readout = 1.25

[[record]]
substance = "RRWVQRWIRRWRKWV-NH2 [SEQ ID NO: 7, RRWVQRWIRRWRKWV]"
inequality_symbol = "="
numeric_readout = 1.25


---

System: Staphylococcus aureus
Format: cell-based
Settings: 18 h
Where no end group is shown, it is not given here.
readout.type: Bioscreen MIC values Staphylococcus aureus

[[record]]
substance = "APKAMRRWVQRWIRRWRPKVLQKKGI-NH2 [SEQ ID NO: 18]"
target = "Staphylococcus aureus"
result = ">10 µM"

[[record]]
substance = "RRWVQRWIRRWRPKRIVQRIKDFLRNLV-NH2 [SEQ ID NO: 11]"
target = "Staphylococcus aureus"
result = "2.5 µM"

[[record]]
substance = "APKAMRRWVQRWIRRWRPKVFQVTGSSA-NH2 [SEQ ID NO: 22]"
target = "Staphylococcus aureus"
result = ">10 µM"

[[record]]
substance = "RRWVQRWIRRWRKWV-NH2 [SEQ ID NO: 7, RRWVQRWIRRWRKWV]"
target = "Staphylococcus aureus"
result = "2.5 µM"

[[record]]
substance = "APKAMWVQRWIRRWRPLQKKGI-NH2 [SEQ ID NO: 27]"
target = "Staphylococcus aureus"
result = ">10 µM"

[[record]]
substance = "APKAMRWVQRWIRRWRPKLQKKGI-NH2 [SEQ ID NO: 26]"
target = "Staphylococcus aureus"
result = ">10 µM"

[[record]]
substance = "RRWVQRWIRRWRPKVAAARRWVQRWIRRWRPKV-NH2 [SEQ ID NO: 12]"
target = "Staphylococcus aureus"
result = "1.25 µM"

[[record]]
substance = "APKAMRRWVQRWIRRWRPKVLLHYPSQKF-NH2 [SEQ ID NO: 23]"
target = "Staphylococcus aureus"
result = ">10 µM"

[[record]]
substance = "RRWVQRWIRRWRPKLQKKGI-NH2 [SEQ ID NO: 16]"
target = "Staphylococcus aureus"
result = ">10 µM"

[[record]]
substance = "RFGRFLRKIRRFRPKVTITIQGSARF-NH2 [SEQ ID NO: 2, reference compound]"
target = "Staphylococcus aureus"
result = "1.25 µM"

[[record]]
substance = "APKAMRRWVQRWIRRWRPKVLQKNNYL-NH2 [SEQ ID NO: 21]"
target = "Staphylococcus aureus"
result = ">10 µM"

